Listed here are molecules together with their documented pEC50.
Biological target: UniProt:P31422
Test: Positive allosteric modulator activity at rat mGlu3 receptor transfected in GIRK channel overexpressing cells assessed as potentiation of glutamate-induced response by thallium mobilization assay
Conditions: read-out: EC50
pEC50 is a log-scale quantity: -log10 of the concentration expressed in molar.

Cc1c(OC[C@@H](C)COc2ccc(F)c(C(=O)O)c2)ccc(C(=O)CC(C)(C)C)c1O	5.93
Cc1c(OC[C@H](C)Oc2ccc(F)c(C(=O)O)c2)ccc(C(=O)CC(C)(C)C)c1O	5.96
COc1ccc(C(=O)O)cc1O[C@H](C)COc1ccc(C(=O)CC(C)(C)C)c(O)c1C	5.73
Cc1cc(OC[C@H](C)COc2ccc(C(=O)CC(C)(C)C)c(O)c2C)ccc1C(=O)O	5.87
Cc1c(OCCCCOc2ccc(C(=O)O)cc2F)ccc(C(=O)CC(C)(C)C)c1O	5.91

// switching to the query molecule
Enquiry: Look at this molecule and give its reported pEC50. Cc1c(OCC(C)COc2ccc(C(=O)O)cc2F)ccc(C(=O)CC(C)(C)C)c1O (single isomer, unassigned)
Return: 5.89

----------
Listed here are molecules together with their documented Activity.
Molecular target: Metabotropic glutamate receptor 3 (Rattus norvegicus) (UniProt P31422)
Sequence (P31422 23-879 limits assumed): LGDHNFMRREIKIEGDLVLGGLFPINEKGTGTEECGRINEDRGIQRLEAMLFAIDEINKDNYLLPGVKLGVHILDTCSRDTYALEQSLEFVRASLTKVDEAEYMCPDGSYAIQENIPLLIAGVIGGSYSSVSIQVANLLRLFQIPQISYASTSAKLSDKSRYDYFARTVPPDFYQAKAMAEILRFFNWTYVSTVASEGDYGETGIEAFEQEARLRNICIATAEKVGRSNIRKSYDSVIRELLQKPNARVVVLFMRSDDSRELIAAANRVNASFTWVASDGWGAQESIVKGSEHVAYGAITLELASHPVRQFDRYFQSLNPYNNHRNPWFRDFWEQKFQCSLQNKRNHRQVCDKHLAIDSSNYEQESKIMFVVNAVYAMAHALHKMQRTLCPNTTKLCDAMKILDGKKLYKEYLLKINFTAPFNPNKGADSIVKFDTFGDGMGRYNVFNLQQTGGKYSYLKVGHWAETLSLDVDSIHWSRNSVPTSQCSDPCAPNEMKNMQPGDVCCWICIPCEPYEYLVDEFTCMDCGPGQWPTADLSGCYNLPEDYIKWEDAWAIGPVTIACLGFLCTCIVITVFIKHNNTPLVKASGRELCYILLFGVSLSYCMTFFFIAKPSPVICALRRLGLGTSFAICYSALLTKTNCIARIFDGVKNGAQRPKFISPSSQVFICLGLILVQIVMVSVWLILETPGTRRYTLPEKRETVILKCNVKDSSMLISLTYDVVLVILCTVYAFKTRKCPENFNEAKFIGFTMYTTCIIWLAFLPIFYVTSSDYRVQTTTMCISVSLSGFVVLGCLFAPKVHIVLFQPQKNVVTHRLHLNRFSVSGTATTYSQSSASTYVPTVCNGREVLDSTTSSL
Test: Positive allosteric modulator activity at rat mGlu3 receptor transfected in GIRK channel overexpressing cells assessed as potentiation of glutamate-induced response by thallium mobilization assay relative to glutamate
Set-up: concentration or dose not given beside the values
Details: filed as positive allosteric modulator
The reply should contain only the number, in %.

Cc1c(OC[C@@H](C)COc2ccc(F)c(C(=O)O)c2)ccc(C(=O)CC(C)(C)C)c1O	92
Cc1c(OC[C@H](C)COc2ccc(F)c(C(=O)O)c2)ccc(C(=O)CC(C)(C)C)c1O	87
COc1ccc(C(=O)O)cc1OC[C@@H](C)COc1ccc(C(=O)CC(C)(C)C)c(O)c1C	120
Cc1c(OC[C@H](C)Oc2ccc(F)c(C(=O)O)c2)ccc(C(=O)CC(C)(C)C)c1O	105

Enquiry: Look at this molecule and give its reported Activity. Cc1ncc(OCCCCOc2ccc(C(=O)CC(C)(C)C)c(O)c2C)cc1C(=O)O
Return: 103

----------
Molecular target: Metabotropic glutamate receptor 2 (Rattus norvegicus) (UniProt P31421)
Sequence (P31421 19-872 limits assumed): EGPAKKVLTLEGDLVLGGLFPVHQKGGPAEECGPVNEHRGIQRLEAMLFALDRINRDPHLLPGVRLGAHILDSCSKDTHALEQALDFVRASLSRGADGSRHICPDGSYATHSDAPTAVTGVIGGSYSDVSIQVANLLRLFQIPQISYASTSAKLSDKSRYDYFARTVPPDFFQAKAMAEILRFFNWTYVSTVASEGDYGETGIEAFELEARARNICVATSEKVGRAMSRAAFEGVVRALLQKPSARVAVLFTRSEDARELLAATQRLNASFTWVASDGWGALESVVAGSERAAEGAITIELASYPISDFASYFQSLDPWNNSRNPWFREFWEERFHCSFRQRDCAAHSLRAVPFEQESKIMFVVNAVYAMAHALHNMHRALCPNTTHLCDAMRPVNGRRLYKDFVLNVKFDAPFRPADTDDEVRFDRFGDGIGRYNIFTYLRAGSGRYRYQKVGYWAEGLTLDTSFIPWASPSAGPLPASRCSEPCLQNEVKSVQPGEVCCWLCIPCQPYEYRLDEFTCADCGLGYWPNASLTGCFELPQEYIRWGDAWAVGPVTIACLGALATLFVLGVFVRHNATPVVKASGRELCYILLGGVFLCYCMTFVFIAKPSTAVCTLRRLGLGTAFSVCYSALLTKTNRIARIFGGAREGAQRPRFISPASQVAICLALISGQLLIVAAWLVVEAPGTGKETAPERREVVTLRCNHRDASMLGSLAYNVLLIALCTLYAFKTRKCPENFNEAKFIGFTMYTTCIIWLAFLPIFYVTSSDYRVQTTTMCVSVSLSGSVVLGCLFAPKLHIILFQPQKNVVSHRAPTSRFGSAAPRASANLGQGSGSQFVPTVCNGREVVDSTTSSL
Test: Positive allosteric modulator activity at rat mGlu2 receptor transfected in GIRK channel overexpressing cells assessed as potentiation of glutamate -induced response by thallium mobilization assay relative to glutamate
Design: concentration or dose not given beside the values
Conditions: filed as positive allosteric modulator
Listed here are compounds together with their documented Activity.
The reply should contain only the number, in %.

CNC(=O)c1cc(OCCCCOc2ccc(C(=O)CC(C)(C)C)c(O)c2C)ccc1F	110
Cc1c(OC[C@@H](C)COc2ccc(C(=O)O)c(Cl)c2)ccc(C(=O)CC(C)(C)C)c1O	107
Cc1c(OC[C@@H](C)COc2ccc(C(=O)O)c(F)c2)ccc(C(=O)CC(C)(C)C)c1O	94
COc1ccc(C(=O)O)cc1OC[C@H](C)COc1ccc(C(=O)CC(C)(C)C)c(O)c1C	98
Cc1c(OC[C@@H](C)COc2ccc(Cl)c(C(=O)O)c2)ccc(C(=O)CC(C)(C)C)c1O	120
Cc1ccc(OCCCCOc2ccc(C(=O)CC(C)(C)C)c(O)c2C)cc1C(=O)O	90

Enquiry: Look at this compound and give its reported Activity. Cc1c(OC[C@@H](C)COc2ccc(F)c(C(=O)O)c2)ccc(C(=O)CC(C)(C)C)c1O
Return: 99

Enquiry: Look at this compound and give its reported Activity. Cc1ccc(C(=O)O)cc1OCCCCOc1ccc(C(=O)CC(C)(C)C)c(O)c1C
Return: 120

----------
Molecular target: Metabotropic glutamate receptor 2 (Rattus norvegicus)
Experiment: Positive allosteric modulator activity at rat mGlu2 receptor transfected in GIRK channel overexpressing cells assessed as potentiation of glutamate -induced response by thallium mobilization assay relative to glutamate
Set-up: concentration or dose not given beside the values
Conditions: filed as positive allosteric modulator
quantity: Activity (%)
The reply should contain only the number, in %.

Consider the reported Activity for these compounds:
COc1ccc(C(=O)O)cc1O[C@@H](C)COc1ccc(C(=O)CC(C)(C)C)c(O)c1C	117
Cc1c(OCCCCOc2ccc(Cl)c(C(=O)O)c2)ccc(C(=O)CC(C)(C)C)c1O	112
Cc1c(OCCCCOc2ccc(C(=O)O)c(F)c2)ccc(C(=O)CC(C)(C)C)c1O	108
Cc1c(OC[C@@H](C)COc2ccc3c(c2)C(=O)NC3)ccc(C(=O)CC(C)(C)C)c1O	50

Enquiry: Look at this compound and give its reported Activity. COc1ccc(OCCCCOc2ccc(C(=O)CC(C)(C)C)c(O)c2C)cc1
Return: 103
